target.desc: T1, biotinylated goat anti-human kappa light chain
T1 construct: Positive control of the ELISA
run.description: ELISA, positive control; note: test concentration or dose not given here
Experimental: The binding of ACVR2A-specific monoclonal antibodies to human ACVR2A, mouse ACVR2A, biotinylated goat anti-human kappa light chain (positive control) and human Fc (negative control) were determined by ELISA.
# Lookup of reported optical density keyed by entry
The answer is to be given in OD; state only the numeric part.

369_E09 (antibody, V domains shown, VH and VL only) VH: EVQLLESGGGLVQPGGSLRLSCAASGFTFDSYSMNWVRQAPGKGLEWVSNINYNSGYKGYADSVKGRFTISRDNSKNTLYLQMNSLRAEDTAVYYCARSATWHDTHLDYWGQGTLVTVSS VL: DIQMTQSPSSLSASVGDRVTITCRASQSILSYLNWYQQKPGKAPKLVIYAATSRASGVPSRFSGSGSGTDFTLTISSLQPEDFATYYCQQSYDLPLTFGGGTKVEIK; 3.48

Let us examine a further case.
Q) Entry 376_H08 (antibody, V domains shown, VH and VL only) VH: EVQLLESGGGLVQPGGSLRLSCAASGFTFDSYGMNWVRQAPGKGLEWVSNINYNGGYKGYADSVKGRFTISRDNSKNTLYLQMNSLRAEDTAVYYCARSATWHDTHLDYWGQGTLVTVSS VL: DIQMTQSPSSLSASVGDRVTITCRASQSILTYLNWYQQKPGKAPKLLIYAATSRHSGVPSRFSGSGSGTDFTLTISSLQPEDFATYYCQQSDSLPLTFGGGTKVEIK : reported optical density = ?
A) 3.53
